Value source: patent US20220135638A1

measurementTarget: T1, full-length human GIPR (GenBank NM_000164) with an N-terminal FLAG tag on HEK-293T cells (human), P48546
T1 chain: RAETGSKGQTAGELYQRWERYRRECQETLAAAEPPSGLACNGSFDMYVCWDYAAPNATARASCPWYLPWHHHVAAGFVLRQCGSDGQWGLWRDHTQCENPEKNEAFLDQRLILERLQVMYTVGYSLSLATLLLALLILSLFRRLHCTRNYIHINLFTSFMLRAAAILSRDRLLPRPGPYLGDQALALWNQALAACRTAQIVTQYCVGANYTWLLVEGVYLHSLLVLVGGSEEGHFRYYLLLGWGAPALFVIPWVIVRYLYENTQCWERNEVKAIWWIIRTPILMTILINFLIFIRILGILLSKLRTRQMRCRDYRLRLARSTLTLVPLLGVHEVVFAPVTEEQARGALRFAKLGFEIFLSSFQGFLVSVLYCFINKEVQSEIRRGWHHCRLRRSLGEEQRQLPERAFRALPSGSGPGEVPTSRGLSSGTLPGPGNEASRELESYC
assayNotes: cell-based or functional assay
Numbered stars: 1 amine (or outer) side, 2 acyl side, 3 side chain; on linkers, the order of the positions; unused ones are H or OH. Square brackets hold non-standard residues; d marks the D form. Primed or numbered codes have the meaning given here. Side chains are listed from the residue outwards. Ends that are not written are not given here. * marks the point of attachment. C18 diacid = O=C(O)CCCCCCCCCCCCCCCCC(=O)*; C16 diacid = O=C(O)CCCCCCCCCCCCCCC(=O)*; γGlu = O=C(O)[C@H](CCC(=O)[*:2])N[*:1]; Iva = CC[C@](C)(N)C(=O)O; PEG3′ = not defined here; Abu = CC[C@H](N)C(=O)O; Aib = CC(C)(N)C(=O)O
quantityName: GIP EC50(pM)
Output spec: scalar in pM, unitless text.

# example entries with known answers
Y[Aib]EGTFISDYSIALDR[Aib]HQ[Aib]NFVNW[Iva]LAQRPSK([PEG3′-PEG3′-γGlu-Ida])GAPPPS (ends and bridges not checked) [Compound No. 492] : 1.22
Y[Aib]EGTFISDYSIALDR[Aib]HQ[Aib]NFVNW[Iva]LAQRPSSGAPK([Abu-γGlu-C18 diacid])PS (ends and bridges not checked) [Compound No. 543] : 0.72
Y[Aib]EGTFISDYSIALDR[Aib]HQ[Aib]NFVNW[Iva]LAQRPSSK([γGlu-γGlu-C18 diacid])APPPS (ends and bridges not checked) [Compound No. 550] : 0.83

Attention now turns to another entry.
*Q* Given the binder Y[Aib]EGTFISDYSIALDR[Aib]HQ[Aib]NFVNW[Iva]LAQRPSSGAPPPK([Gly-Gly-Gly-Gly-Gly-γGlu-C16 diacid]) (ends and bridges not checked) [Compound No. 462] , what is its reported GIP EC50(pM)?
*A* 0.35
